Test: Human HepG2 cell viability assay in 384 well format
Type: toxicity, cell-based
Design: dose 125 nL, time 70.5 hour; concentration not given beside the values
Conditions: HepG2 cells, read-out: Inhibition
assay_endpoint: cytotoxicity at 70.5 h

INSERT INTO results (compound, val) VALUES
  ('O=C(Cc1ccc2c(c1)OCO2)N1CCCN(c2ccccc2)CC1', '-4.44%'),
  ('CCN1CCn2c(C)cnc2C12CCN(C(=O)NC)CC2', '-6.2%'),
  ('Cc1ccccc1-c1cc(C(=O)N2CCCC(n3ccnc3C)C2)[nH]n1 (configuration not stated)', '13.3%'),
  ('O=C(CCc1ccccc1Cl)NS(=O)(=O)c1ccc2c(c1)OCCO2', '-2.93%'),
  ('CCOCC1CN(C(=O)c2cccs2)Cc2nn(C)cc21 (configuration not stated)', '-2.33%'),
  ('Cc1nn(C)c2cnn(CC(=O)NCCc3ccccc3)c12', '-6.1%'),
  ('CCN1CCN(C(=O)NCCOc2ccc3c(c2)OCO3)CC1', '-11.4%'),
  ('COc1ccccc1C1(C(=O)N2CCN(CC(C)O)CC2)CC1 (configuration not stated)', '-0.267%'),
  ('CCNC(=O)[C@@H]1C[C@@H](NC(=O)c2ccc(C)s2)CN1Cc1ccccn1', '-2.7%'),
  ('COc1cccc(S(=O)(=O)N2CCCCC2CCN2CCCC2=O)c1 (configuration not stated)', '-7.04%'),
  ('COc1cccc(-c2n[nH]cc2C(=O)NC(C)CC(=O)O)c1 (configuration not stated)', '-2.91%'),
  ('O=C(NCCn1ccnc1)c1csc(Br)c1', '16.5%');

----------
Catalogue of cytotoxicity at 70.5 h values
Assay: Human HepG2 cell viability assay in 384 well format
Format: toxicity, cell-based
Design: dose 125 nL, time 70.5 hour; concentration not given beside the values
Conditions: HepG2 cells, read-out: Inhibition
assay_endpoint: cytotoxicity at 70.5 h (%)

INSERT INTO assay_data (molecule, assay_endpoint, val) VALUES
  ('CN(Cc1ccccn1)C1CC2(CCN(Cc3ccccn3)CC2)C1', 'cytotoxicity at 70.5 h', -10.9),
  ('COc1ccccc1OCCCc1cncc(C(N)=O)c1', 'cytotoxicity at 70.5 h', -14.6),
  ('O=C(CC1CC1)N1CCC(O)(CN2CCN(c3ccccc3)CC2)C1 (stereo unspecified)', 'cytotoxicity at 70.5 h', 5.49),
  ('COc1cc(N2CCC3(CC2)CC(N2CCN(C)CC2)CO3)ncn1 (stereo unspecified)', 'cytotoxicity at 70.5 h', -20.9),
  ('COCCN1CCN(C(=O)c2ccc(C)cc2OC)[C@H]2CS(=O)(=O)C[C@H]21', 'cytotoxicity at 70.5 h', -11.7),
  ('COc1ccc(OC)c(C(C)Nc2nc3c(C)nn(C)c3c(=O)n2C)c1 (stereo unspecified)', 'cytotoxicity at 70.5 h', 12.4),
  ('CC(C)CCn1c(=O)nc2n1C(=O)N(c1ccc(F)cc1)C2', 'cytotoxicity at 70.5 h', 22.3),
  ('O=C(O)c1c(-c2cccnc2)ncc2c1CCN(Cc1ccccn1)C2', 'cytotoxicity at 70.5 h', -8.57),
  ('CNc1nc(C2CCCCN2C(=O)COC)nc2c1CN(C)CC2 (stereo unspecified)', 'cytotoxicity at 70.5 h', -9.52),
  ('COCc1nnn2c1CN(C(=O)c1c[nH]cn1)CCC2', 'cytotoxicity at 70.5 h', 0.823),
  ('O=C(Cc1ccc(Br)s1)NCC(=O)Nc1cn[nH]c1', 'cytotoxicity at 70.5 h', -9.18);

Entry source: ChEMBL document CHEMBL3507680
